The measurements presented in this section are drawn from ChEMBL document CHEMBL5120938.

testDescription: Metabolic stability in alamethicin treated CD-1 mouse liver microsomes assessed as half life pretreated for 5 mins followed by NADPH addition and measured up to 45 mins by LC-MS/MS analysis
Format: ADME, Microsome
setupConditions: time < 50 min
assayReadout: half-life
In your response, put the unit directly after the numeric value.

Reference set, count: 3
| compound | half-life |
| --- | --- |
| [2H]C([2H])([2H])c1nnn(C)c1-c1cnc2c3ccc(C(C)(C)O)c(Cl)c3n([C@H](c3ccccc3)C3CCOCC3)c2c1 | 25 min |
| [2H]C([2H])([2H])c1nnn(C)c1-c1cnc2c3ccc(C(C)(C)O)c(F)c3n([C@H](c3ccccc3)C3CCOCC3)c2c1 | 42 min |
| [2H]C([2H])([2H])c1nnn(C)c1-c1cnc2c3ccc(S(C)(=O)=O)cc3n([C@H](c3ccccc3)C3CCOCC3)c2c1 | 22 min |

Sample Cc1nnn(C)c1-c1cnc2c3ccc(C(C)(O)C(F)(F)F)c(F)c3n([C@H](c3ccccc3)C3CCOCC3)c2c1 (stereo partly specified) — what was its half-life?
58 min

Next compound up: `Cc1nnn(C)c1-c1cnc2c3ccc(S(C)(=O)=O)cc3n([C@H](c3ccccc3)C3CCOCC3)c2c1`
10 min

Further, for Cc1nnn(C)c1-c1cnc2c3ccc(C(C)(C)O)cc3n([C@H](c3ccccc3)C3CCOCC3)c2c1 [EZOBRESIB] ?
24 min

---

assaySystem: Bromodomain-containing protein 2 (Homo sapiens, UniProt P25440)
Sequence (P25440 whole entry): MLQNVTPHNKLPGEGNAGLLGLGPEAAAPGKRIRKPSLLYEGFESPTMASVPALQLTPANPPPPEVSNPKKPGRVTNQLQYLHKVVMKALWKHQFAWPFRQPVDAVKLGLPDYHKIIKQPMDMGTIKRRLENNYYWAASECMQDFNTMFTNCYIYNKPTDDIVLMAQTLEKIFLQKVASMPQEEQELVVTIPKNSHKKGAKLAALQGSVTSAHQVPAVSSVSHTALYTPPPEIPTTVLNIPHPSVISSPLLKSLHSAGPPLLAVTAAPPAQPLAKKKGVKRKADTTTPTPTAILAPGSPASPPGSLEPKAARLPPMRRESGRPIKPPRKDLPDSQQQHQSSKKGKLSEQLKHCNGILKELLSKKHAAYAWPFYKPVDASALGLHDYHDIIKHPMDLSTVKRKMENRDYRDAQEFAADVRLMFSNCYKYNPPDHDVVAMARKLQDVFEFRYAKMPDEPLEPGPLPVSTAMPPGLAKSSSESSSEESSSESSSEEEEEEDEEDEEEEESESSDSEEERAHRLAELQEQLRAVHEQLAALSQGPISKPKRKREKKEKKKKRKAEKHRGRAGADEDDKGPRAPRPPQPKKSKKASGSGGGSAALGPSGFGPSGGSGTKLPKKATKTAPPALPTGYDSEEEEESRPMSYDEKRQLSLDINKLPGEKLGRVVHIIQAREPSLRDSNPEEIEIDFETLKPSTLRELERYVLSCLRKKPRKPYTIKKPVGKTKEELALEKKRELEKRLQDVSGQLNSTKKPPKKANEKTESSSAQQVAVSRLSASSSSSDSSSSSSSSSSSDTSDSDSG
testDescription: Inhibition of BRD2 (unknown origin)
assayReadout: IC50

Reported IC50, compound `[2H]C([2H])([2H])c1nnn(C)c1-c1cnc2c3cc(F)c(C(C)(C)O)cc3n([C@H](c3ccccc3)C3CCOCC3)c2c1` : ____
0.2 nM

---

testDescription: Metabolic stability in alamethicin treated Beagle dog liver microsomes assessed as half life pretreated for 5 mins followed by NADPH addition and measured up to 45 mins by LC-MS/MS analysis
Assay type: ADME, Canis lupus familiaris, Microsome
setupConditions: time < 50 min
assayReadout: half-life (min)
Give the value in min but do not write min after it.

Illustrative cases are given below, each with its answer.
| compound | half-life (min) |
| --- | --- |
| [2H]C([2H])([2H])c1nnn(C)c1-c1cnc2c3ccc(C(C)(C)O)cc3n([C@H](c3ccccc3)C3CCOCC3)c2c1 | 37 |
| Cc1nnn(C)c1-c1cnc2c3ccc(C(C)(C)O)cc3n([C@H](c3ccccc3)C3CCOCC3)c2c1 [EZOBRESIB] | 20 |
| [2H]C([2H])([2H])c1nnn(C)c1-c1cnc2c3ccc(S(C)(=O)=O)cc3n([C@H](c3ccccc3)C3CCOCC3)c2c1 | 34 |
| Cc1nnn(C)c1-c1cnc2c3ccc(S(C)(=O)=O)cc3n([C@H](c3ccccc3)C3CCOCC3)c2c1 | 11 |
| [2H]C([2H])([2H])c1nnn(C)c1-c1cnc2c3ccc(C(C)(C)O)c(F)c3n([C@H](c3ccccc3)C3CCOCC3)c2c1 | 69 |

Item `[2H]C([2H])([2H])c1nnn(C)c1-c1cnc2c3cc(F)c(C(C)(C)O)cc3n([C@H](c3ccccc3)C3CCOCC3)c2c1` has what recorded half-life?
32

Try the compound `[2H]C([2H])([2H])c1nnn(C)c1-c1cnc2c3c(F)cc(C(C)(C)O)cc3n([C@H](c3ccccc3)C3CCOCC3)c2c1`
40

And then Cc1nnn(C)c1-c1cnc2c3ccc(C(C)(O)C(F)(F)F)c(F)c3n([C@H](c3ccccc3)C3CCOCC3)c2c1 (some centres not stated) , what is it?
42
